Values of log10 of Ki reported for Cannabinoid receptor 1 (Mus musculus) appear below.
Recorded Ki (log10, nM)

In: Entry Cc1csc2c1-c1c(c(C(=O)NN3CCCCC3)nn1-c1ccc(Cl)cc1Cl)C2 : reported log10 of Ki = ?
Out: 3.59

In: Queued: Cc1csc2c1-c1c(c(C(=O)NC3C[C@@H](C)CC[C@@H]3C(C)C)nn1-c1ccc(Cl)cc1Cl)C2 (some centres undefined)
Out: 3.51

In: Queued: Cc1ccc(Cn2nc(C(=O)NC3C(C)(C)C4CC[C@@]3(C)C4)c3c2-c2c(C)csc2C3)cc1 (some centres undefined)
Out: 2.62

In: Queued: Cc1csc2c1-c1c(c(C(=O)NC3CCCCC3)nn1-c1ccc(Cl)cc1Cl)C2
Out: 3.49

In: Queued: Cc1csc2c1-c1c(c(C(=O)NN3CCCC3)nn1-c1ccc(Cl)cc1Cl)C2
Out: 3.67

In: Queued: Cc1ccc(Cn2nc(C(=O)NN3CCCC3)c3c2-c2c(C)csc2C3)cc1
Out: 3.65

Further cases:
In: Entry Cc1ccc(Cn2nc(C(=O)NC3C[C@@H](C)CC[C@@H]3C(C)C)c3c2-c2c(C)csc2C3)cc1 (some centres undefined) : reported log10 of Ki = ?
Out: 2.20

In: Queued: Cc1ccc(Cn2nc(C(=O)NN3CCCCC3)c3c2-c2c(C)csc2C3)cc1
Out: 2.58

In: Queued: Cc1csc2c1-c1c(c(C(=O)NN3CCCCCC3)nn1-c1ccc(Cl)cc1Cl)C2
Out: 3.58

In: Queued: Cc1csc2c1-c1c(c(C(=O)NC3C(C)(C)C4CC[C@@]3(C)C4)nn1-c1ccc(Cl)cc1Cl)C2 (some centres undefined)
Out: 3.35

In: Queued: Cc1ccc(Cn2nc(C(=O)NC3C[C@@H](C)CC[C@@H]3C(C)C)c3c2-c2cc(C)sc2C3)cc1 (some centres undefined)
Out: 2.26

In: Queued: Cc1cc2c(s1)Cc1c(C(=O)NN3CCCCC3)nn(-c3ccc(Cl)cc3Cl)c1-2
Out: 2.64

In: Queued: Cc1cc2c(s1)Cc1c(C(=O)NN3CCCC3)nn(-c3ccc(Cl)cc3Cl)c1-2
Out: 3.14

In: Queued: Cc1ccc(Cn2nc(C(=O)NC3CCCCC3)c3c2-c2c(C)csc2C3)cc1
Out: 3.30

Ref: ChEMBL document CHEMBL3351751
